// values below are reported Biochem EGFR % Inhibition (P.167)
# system under test: EGFR (Homo sapiens, UniProt P00533)
# Construct: endogenous in cells; host or cells: A431 cells (lysate, captured with SUMO1 anti-EGFR antibody)
# Sequence (P00533 25-1210): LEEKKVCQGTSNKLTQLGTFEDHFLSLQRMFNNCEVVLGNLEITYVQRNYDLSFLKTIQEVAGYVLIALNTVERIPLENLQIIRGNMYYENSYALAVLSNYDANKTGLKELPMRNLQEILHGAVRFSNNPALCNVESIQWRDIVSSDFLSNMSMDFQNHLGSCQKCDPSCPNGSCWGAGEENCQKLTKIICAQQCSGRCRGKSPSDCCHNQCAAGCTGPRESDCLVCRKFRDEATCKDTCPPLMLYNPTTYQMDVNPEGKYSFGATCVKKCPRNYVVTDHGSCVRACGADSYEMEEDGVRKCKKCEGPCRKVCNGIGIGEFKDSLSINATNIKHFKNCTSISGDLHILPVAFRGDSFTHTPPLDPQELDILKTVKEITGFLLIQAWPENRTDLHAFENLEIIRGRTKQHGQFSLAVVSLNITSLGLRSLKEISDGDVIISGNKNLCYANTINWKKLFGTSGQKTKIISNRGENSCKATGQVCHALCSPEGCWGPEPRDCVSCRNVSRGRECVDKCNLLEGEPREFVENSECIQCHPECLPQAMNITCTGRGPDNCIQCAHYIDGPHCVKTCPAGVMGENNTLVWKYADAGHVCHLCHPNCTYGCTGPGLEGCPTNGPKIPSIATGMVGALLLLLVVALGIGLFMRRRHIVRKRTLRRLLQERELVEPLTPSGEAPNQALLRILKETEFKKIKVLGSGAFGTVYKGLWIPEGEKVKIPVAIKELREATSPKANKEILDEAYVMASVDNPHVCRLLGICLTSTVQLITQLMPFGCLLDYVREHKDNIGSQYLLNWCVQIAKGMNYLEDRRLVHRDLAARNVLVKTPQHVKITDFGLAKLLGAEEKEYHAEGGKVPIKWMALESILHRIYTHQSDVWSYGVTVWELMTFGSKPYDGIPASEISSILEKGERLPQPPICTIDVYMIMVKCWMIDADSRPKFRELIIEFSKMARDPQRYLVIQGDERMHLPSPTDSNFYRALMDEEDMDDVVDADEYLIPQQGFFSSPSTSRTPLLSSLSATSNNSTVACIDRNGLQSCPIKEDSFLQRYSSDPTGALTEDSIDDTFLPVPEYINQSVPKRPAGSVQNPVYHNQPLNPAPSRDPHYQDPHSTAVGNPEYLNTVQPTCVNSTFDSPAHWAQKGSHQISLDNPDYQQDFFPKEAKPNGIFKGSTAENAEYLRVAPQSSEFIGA
# test name: Biochemical EGFR Assay
# Set-up: concentration or dose not given beside the values

| smi | Biochem EGFR % Inhibition (P.167) / % |
| --- | --- |
| O=C1Nc2ccc(CCCl)cc2C1=Cc1ccc(O)c(Br)c1 | 21.4 |
| O=C1Nc2ccc(I)cc2C1=Cc1ccc(-c2ccccc2)cc1 | 52.4 |
| COc1ccc(OC)c(C=C2C(=O)Nc3c(Br)cc(Br)c(C)c32)c1 | −36.6 |
| O=C1Nc2ccc(CCCl)cc2C1=Cc1ccc(-c2ccccc2)cc1 | 2.9 |
| O=C1Nc2ccc(CCCl)cc2C1=Cc1cc(Cl)ccc1O | 62.9 |
